- Read-out: Intercellular Adhesion Molecule 1 (ICAM1), ICAM1 (gene 3383)
- Method: BSK_3C_ICAM1: BioMAP Diversity Plus: 3C Assay for Intercellular Adhesion Molecule 1 (ICAM1) Biomarker Activity (AID 2283003)
- Test conditions: primary human endothelial cells (HUVEC); actives raise or lower the signal
Calls of active or inactive are those of the source. How the source made its calls: active means hit-call score of the fitted dose curve at least 0.9, where 1 is the maximum; inactive means score below 0.9.
Measurement type: AC50

Record excerpt, results attached:
Measured AC50 of CCCCCCCCCCCCCCCC[N+](C)(C)CC : 3.44 µM (active)

Measured AC50 of O=C(c1ccc(O)cc1)c1ccc(O)cc1O : inactive

Measured AC50 of O=C(Nc1ccccc1SSc1ccccc1NC(=O)c1ccccc1)c1ccccc1 : inactive

Measured AC50 of N#[N+]c1ccc2c(S(=O)(=O)[O-])cccc2c1O : inactive

Measured AC50 of C=CCOc1c(Br)cc(Br)cc1Br : 28.7 µM (active)

Measured AC50 of C/C=C\C/C=C/CCCCCCCCOC(C)=O : inactive

Measured AC50 of O=c1c2ccccc2oc2ccccc12 : inactive

Measured AC50 of CCCCC(CC)COCC1CO1 (stereo not drawn) : inactive

---
Measured AC50 of CC(C)C(=O)C(C)C : inactive

Measured AC50 of CCO[Si](CCCN=C=O)(OCC)OCC : inactive

Measured AC50 of C=CC=CC=CCCCCC : inactive

Measured AC50 of O=Nc1ccc(O)cc1 : inactive

Measured AC50 of C=CCOCC(O)CCl (stereo not drawn) : inactive

---

- Method: ATG_VDRE_CIS: Attagene CIS-FACTORIAL HepG2 Assay for human Vitamin D Receptor Element (VDRE) (AID 2282968)
- Test conditions: HepG2 VDRE cis-reporter transcription, actives raise or lower the signal
The source made the active and inactive calls. The calls were made as follows: active = hit-call score of the fitted dose curve at least 0.9, where 1 is the maximum; inactive = score below 0.9.
I would appreciate it if you answered using one of these outcomes: T (active), F (inactive)

Take a look at these entries with their results.
Task: Identify the outcome logged in this assay for the molecule shown: OCCc1ccncc1
Result: F

Task: Identify the outcome logged in this assay for the molecule shown: O=C(OCC1CCC2OC2C1)C1CCC2OC2C1 (stereo unspecified)
Result: F

Task: Identify the outcome logged in this assay for the molecule shown: CC(C)c1ccc2c(C(C)C)cc(C(C)C)c(S(=O)(=O)O)c2c1
Result: T

Task: Identify the outcome logged in this assay for the molecule shown: CCCCCC/C=C\CCCCCCCC(=O)O
Result: F

Task: Identify the outcome logged in this assay for the molecule shown: O=C(O)c1cc2ccccc2nc1C(=O)O
Result: F

Task: Identify the outcome logged in this assay for the molecule shown: CC(=O)[C@H]1[C@H](C#N)C[C@H]2[C@@H]3CC=C4C[C@@H](O)CC[C@]4(C)[C@H]3CC[C@@]21C
Result: F

Task: Identify the outcome logged in this assay for the molecule shown: CCCCCCC1(C)CCC(=O)O1 (stereo unspecified)
Result: F

Task: Identify the outcome logged in this assay for the molecule shown: CC(=O)NS(=O)(=O)c1ccc(N)cc1
Result: F

Task: Identify the outcome logged in this assay for the molecule shown: CCCNC(=O)NS(=O)(=O)c1ccc(Cl)cc1
Result: F

Task: Identify the outcome logged in this assay for the molecule shown: CCOC(=O)CC(C(C)=O)C(C)=O
Result: F

---
Task: Identify the outcome logged in this assay for the molecule shown: CC1(C)[C@H]2CC[C@]1(C)C(=O)C2
Result: F

Task: Identify the outcome logged in this assay for the molecule shown: Cc1cc(C)c(C)cc1C
Result: F

Task: Identify the outcome logged in this assay for the molecule shown: CC[C@H]1OC(=O)[C@H](C)[C@@H](O[C@H]2C[C@@](C)(OC)[C@@H](O)[C@H](C)O2)[C@H](C)[C@@H](O[C@@H]2O[C@H](C)C[C@H](N(C)C)[C@H]2O)[C@](C)(O)C[C@@H](C)C(=NOCOCCOC)[C@H](C)[C@@H](O)[C@]1(C)O
Result: F

Task: Identify the outcome logged in this assay for the molecule shown: CCOCC(=O)O
Result: F

Task: Identify the outcome logged in this assay for the molecule shown: COC(=O)c1sccc1S(N)(=O)=O
Result: F

Task: Identify the outcome logged in this assay for the molecule shown: CCCCCCCCCCCCCOP(=O)(O)O
Result: F

Task: Identify the outcome logged in this assay for the molecule shown: CC(=O)OCC(=O)[C@@]12N=C(C)O[C@@H]1C[C@H]1[C@@H]3CCC4=CC(=O)C=C[C@]4(C)[C@H]3[C@@H](O)C[C@@]12C
Result: T

---

- Method: ATG_CRE_CIS: Attagene CIS-FACTORIAL HepG2 Assay for human cAMP Responsive Element (CRE) binding protein 3 (AID 2282926)
- Test conditions: HepG2 CRE cis-reporter, Attagene multiplexed mRNA; actives raise or lower the signal
- Procedure: ATG_CIS is a cell-based, multiplexed-readout assay that uses HepG2, a human liver cell line, with measurements taken at 24 hours after chemical dosing in a 24-well plate.ATG_CRE_CIS is one of 52 assay component(s) measured or calculated from the ATG_CIS assay. […] This assay endpoint, ATG_CRE_CIS, was analyzed with bidirectional fitting relative to DMSO as the negative control and baseline of activity. […]
Activity calls are given as the source filed them. How the source made its calls: active means hit-call score of the fitted dose curve at least 0.9, where 1 is the maximum; inactive means score below 0.9.
I would appreciate it if you answered using one of these outcomes: true (1) for active, false (0) for inactive

Take a look at these entries with their results.
Task: Identify the outcome logged in this assay for the compound shown: O=S(=O)(O)c1ccccc1C=Cc1ccc(-c2ccc(C=Cc3ccccc3S(=O)(=O)O)cc2)cc1
Result: false (0)

Task: Identify the outcome logged in this assay for the compound shown: O=c1[nH]c(=O)c2[nH]c(=O)[nH]c2[nH]1
Result: false (0)

Task: Identify the outcome logged in this assay for the compound shown: CCOCC(=O)O
Result: false (0)

---
Task: Identify the outcome logged in this assay for the compound shown: SCCc1cnccn1
Result: false (0)

Task: Identify the outcome logged in this assay for the compound shown: CC(C)CC(O)Cc1ccccc1 (stereo unspecified)
Result: false (0)

Task: Identify the outcome logged in this assay for the compound shown: C[Si](C)O[Si](C)(C)O[Si](C)(C)O[Si](C)C
Result: false (0)

Task: Identify the outcome logged in this assay for the compound shown: CCCCCC/C=C\CCCCCCCC(=O)O
Result: true (1)

Task: Identify the outcome logged in this assay for the compound shown: CC(=O)Nc1nnc(S(N)(=O)=O)s1
Result: false (0)

Task: Identify the outcome logged in this assay for the compound shown: C(=CC=Nc1ccccc1)C=CNc1ccccc1
Result: false (0)

Task: Identify the outcome logged in this assay for the compound shown: O=S(=O)(O)c1ccc2cc(O)c(S(=O)(=O)O)cc2c1
Result: false (0)

Task: Identify the outcome logged in this assay for the compound shown: CCN(CC#N)c1cccc(C)c1
Result: false (0)

---

- Method: ATG_AP_1_CIS: Attagene CIS-FACTORIAL HepG2 Assay for human Activator Protein 1 (AP-1) (AID 2282931)
- Test conditions: HepG2 Attagene cis-factorial AP-1 reporter mRNA; actives raise or lower the signal
Calls of active or inactive are those of the source. Rule for the calls: active = hit-call score of the fitted dose curve at least 0.9, where 1 is the maximum; inactive = score below 0.9.
I would appreciate it if you answered using one of these outcomes: YES (active), NO (inactive)

Take a look at these entries with their results.
Task: Identify the outcome logged in this assay for the molecule shown: C=CC(C)(CCC=C(C)C)OC(=O)CC(C)C (stereo not drawn)
Result: YES

Task: Identify the outcome logged in this assay for the molecule shown: CC(C)C1=CC2=CC[C@@H]3[C@](C)(CCC[C@@]3(C)C(=O)O)[C@H]2CC1
Result: YES

Task: Identify the outcome logged in this assay for the molecule shown: COC(=O)c1c(C)cc(O)c(C)c1O
Result: NO

Task: Identify the outcome logged in this assay for the molecule shown: CCCCCCC(O)CO (stereo not drawn)
Result: NO

Now look at this entry.
Task: Identify the outcome logged in this assay for the molecule shown: Cc1ccc(OC(=O)CC(C)C)cc1
Result: NO

---

- Read-out: Interleukin-1 alpha (IL1a), IL1A (gene 3552)
- Method: BSK_BE3C_IL1a: BioMAP Diversity Plus: BE3C Assay for Interleukin-1 alpha (IL1a) Biomarker Activity (AID 2283016)
- Test conditions: primary human bronchial epithelial cells; actives raise or lower the signal
The source made the active and inactive calls. The calls were made as follows: active = hit-call score of the fitted dose curve at least 0.9, where 1 is the maximum; inactive = score below 0.9.
I would appreciate it if you answered using one of these outcomes: TRUE = active, FALSE = inactive

Take a look at these entries with their results.
Task: Identify the outcome logged in this assay for the compound shown: COCc1c(C(C)C)nc(C(C)C)c(/C=C/[C@@H](O)C[C@@H](O)CC(=O)O)c1-c1ccc(F)cc1
Result: FALSE

Task: Identify the outcome logged in this assay for the compound shown: O=c1c2ccccc2oc2ccccc12
Result: TRUE

Task: Identify the outcome logged in this assay for the compound shown: c1ccc2c(c1)ccc1ncccc12
Result: TRUE

Task: Identify the outcome logged in this assay for the compound shown: C/C=C\C/C=C/CCCCCCCCOC(C)=O
Result: TRUE

Task: Identify the outcome logged in this assay for the compound shown: CCCCC(CC)COCC1CO1 (centres undefined)
Result: FALSE

Now look at this entry.
Task: Identify the outcome logged in this assay for the compound shown: O=C(Cl)c1cc(C(=O)Cl)cc(C(=O)Cl)c1
Result: TRUE
